System: Zika virus NS2B-NS3 protease (unlinked)
Test: Optimization of GU AMC qHTS for Zika virus inhibitors: Unlinked NS2B-NS3 protease assay (AID 1347151); further: nearly all actives have a fitted effect of over 80% in size
Conditions: recombinant ZIKV NS2B-NS3 protease, fluorogenic AMC substrate; series mostly up to 52.5 µM
Source text: Avindra Nath, Ph.D., National Institute of Neurological Disorders and Stroke (NINDS), Bethesda, MD Radhakrishnan Padmanabhan, Ph.D., Georgetown University (GU), Washington D.C. Zika Virus causes congenital defects, including microcephaly and is associated with Guillain-Barre syndrome, eningoencephalitis and myelitis in infected adult. […]
Records with an inconclusive call do not appear. Activity calls are given as the source filed them. The call rests on the fitted dose curve; in most records, active means well fitted inhibition curve with a large enough effect; inconclusive means small, poorly fitted or top-dose-only effect; inactive means no such curve, though single readings can be large or run the other way.
The reply should be one of these categories: y for active, n for inactive

Answered cases to consult:
CC(C)(C)c1ccc(/C=C/C(=O)Nc2ccc3c(c2)OCCO3)cc1: n
Cc1cc2c(cc1Cl)N(C(=O)Nc1ccnc3ccccc13)CC2: n
Nc1ccc(N2C(=O)c3ccccc3C2=O)c(Cl)c1: n
Cn1cc(C(F)(F)F)nc1-c1ccc(OCC(O)CNCCOc2ccc(O)c(C(N)=O)c2)cc1 (stereo unspecified): y

Query: How was Cn1c(=O)c2[nH]c(-c3ccc(S(=O)(=O)O)cc3)nc2n(C)c1=O classified in this test?
Result: n

Query: How was N[C@@H](Cc1ccc(F)cc1)C(=O)O classified in this test?
Result: n

====

Test: qHTS for differential inhibitors of proliferation of Plasmodium falciparum line W2 (AID 1883);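 further: parasites grown with compound for 72 h before lysis and staining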
Conditions: Plasmodium falciparum W2 proliferation inhibition; series mostly up to 28.7 µM
Results filed as inconclusive are left out. Calls of active or inactive are those of the source. The call rests on the fitted dose curve; in most records, active means well fitted curve in the direction sought with a large enough effect; inconclusive means small, poorly fitted or top-dose-only effect, or another doubt; inactive means no such curve, though single readings can be large or run the other way. Residues, ends and D or L forms follow the SMILES beside them. *: point of attachment. Cbz = O=C(OCc1ccccc1)*
The reply should be one of these categories: yes (active), no (inactive)

Cn1ccnc1: no
CC1CNCCN1S(=O)(=O)c1cccc2cnccc12 (stereo unspecified): yes
CN(C)S(=O)(=O)c1ccc2c(c1)/C(=C/c1cc3c([nH]1)CCCC3)C(=O)N2: yes
CC(C)[C@H](NC(=O)OCc1ccccc1)C(=O)N[C@H](C=O)Cc1ccccc1 (Cbz-Val-Phe-aldehyde): yes
NC1(C(=O)O)CCc2cc(C(=O)O)ccc21 (stereo unspecified): no

# next molecule below
Query: How was O=[N+]([O-])c1cccc2cn[nH]c12 classified in this test?
Result: no

====

Experiment: qHTS for differential inhibitors of proliferation of Plasmodium falciparum line D10 (AID 1877);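 further: parasites grown with compound for 72 h before DNA staining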; further: potency means the concentration at half of the fitted maximal effect
Conditions: series mostly up to 28.7 µM
Records with an inconclusive call do not appear. Calls of active or inactive are those of the source. The call rests on the fitted dose curve; in most records, active means well fitted curve in the direction sought with a large enough effect; inconclusive means small, poorly fitted or top-dose-only effect, or another doubt; inactive means no such curve, though single readings can be large or run the other way.
EXPERIMENTAL READOUT: Potency

NC(=Nc1ccccc1)NC(=O)c1nc(Cl)c(N)nc1N: 8.91 µM (active)
Nc1ccc2c3c(cccc13)C(=O)NC2=O: inactive
NCCCCN: inactive
N#CC(C#N)=C(N)/C(C#N)=C/c1ccc(O)cc1: inactive
c1ccc2nc(C3=NCCN3)ccc2c1: inactive

Query: Look up and report measured Potency for this entry: N#CC(=C(\N)Sc1ccccc1N)/C(C#N)=C(/N)Sc1ccccc1N
Result: 2 µM (active)

Query: Look up and report measured Potency for this entry: O=C1C2C=CC=CC2=NC(=S)N1CCN1CCC(=C(c2ccc(F)cc2)c2ccc(F)cc2)CC1 (configuration not stated)
Result: inactive

Query: Look up and report measured Potency for this entry: CCCc1c(OCCCOc2ccc(OCC(=O)O)cc2)ccc(C(C)=O)c1O
Result: inactive

Query: Look up and report measured Potency for this entry: CNc1ncnc2c1ncn2[C@H]1C[C@H](OP(=O)(O)O)[C@@H](COP(=O)(O)O)O1
Result: inactive

Query: Look up and report measured Potency for this entry: COc1cc(C(O)CO)ccc1O (configuration not stated)
Result: inactive

Query: Look up and report measured Potency for this entry: N=C(N)SCCc1cnc[nH]1
Result: inactive

Query: Look up and report measured Potency for this entry: CC(C)NC[C@H](O)COc1ccc(CC(N)=O)cc1
Result: inactive
